Exercise: state measured pIC50 for each of the molecules provided.
# System: SUM149PT spheroids with HUVEC/MSC, viability
# Run description: Anticancer human tumor SUM149PT cell line growth inhibition [GQUAD];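 also: spheroids exposed to drugs for seven days before readout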
# Run conditions: curve of first compound; second compound 1 µM
pIC50: −log10 of the molar value.

Which pIC50 is listed for CC(C)n1c(=O)n(C)c2cnc3cc(F)c(-c4ccc(OCCCN5CCCCC5)nc4)cc3c21 + Cc1[nH]c2ccc(F)cc2c1-c1nc2c3cccnc3c3ncccc3c2[nH]1 ? < 5.00

Cool, now C=CC(=O)N1CCN(c2nc(=O)n(-c3c(C)ccnc3C(C)C)c3nc(-c4c(O)cccc4F)c(F)cc23)C(C)C1 (stereo not drawn) + Cc1[nH]c2ccc(F)cc2c1-c1nc2c3cccnc3c3ncccc3c2[nH]1 < 5.00

Cool, now CC(C)n1c(=O)n(C)c2cnc3cc(F)c(-c4ccc(OCCCN5CCCCC5)nc4)cc3c21 + CN(C)c1ccc(Nc2c3ccc(NC(=O)CCN4CCCC4)cc3nc3cc(NC(=O)CCN4CCCC4)ccc23)cc1 < 5.00

---

# Tested on: SUM149PT spheroids with HUVEC/MSC, viability
# Run description: Anticancer human tumor SUM149PT cell line growth inhibition [GQUAD];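 also: spheroids exposed to drugs for seven days before readout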;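 as to viability, T/C: percent viability relative to DMSO vehicle control taken as 100%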
# Run conditions: second compound 0.316 µM; first compound 0.1 µM; stronger effect = lower value
viability, T/C less than 90% is T; viability, T/C greater than or equal to 90% is F.

Please state whether viability, T/C is below 90% for CC1COCCN1c1cc(C2(S(C)(=N)=O)CC2)nc(-c2ccnc3[nH]ccc23)n1 (stereo unspecified) + Cc1[nH]c2ccc(F)cc2c1-c1nc2c3cccnc3c3ncccc3c2[nH]1 F

Cool, now COc1ccc([C@@H](O)c2cc(-c3ncnc4cc(N5CCOCC5)ccc34)c(F)cc2Cl)nn1 + Cc1[nH]c2ccc(F)cc2c1-c1nc2c3cccnc3c3ncccc3c2[nH]1 T

Cool, now C=CC(=O)N1CCN(c2nc(=O)n(-c3c(C)ccnc3C(C)C)c3nc(-c4c(O)cccc4F)c(F)cc23)C(C)C1 (stereo unspecified) + CN(C)c1ccc(Nc2c3ccc(NC(=O)CCN4CCCC4)cc3nc3cc(NC(=O)CCN4CCCC4)ccc23)cc1 F

Cool, now O=c1[nH]cc(F)c(=O)[nH]1 + Cc1[nH]c2ccc(F)cc2c1-c1nc2c3cccnc3c3ncccc3c2[nH]1 F

Cool, now CC1COCCN1c1cc(C2(O)CC3CCC(C2)O3)c2cnn(-c3ccn[nH]3)c2n1 (stereo unspecified) + CN(C)c1ccc(Nc2c3ccc(NC(=O)CCN4CCCC4)cc3nc3cc(NC(=O)CCN4CCCC4)ccc23)cc1 T

---

# Test system: SUM149PT spheroids with HUVEC/MSC, viability
# Run description: Anticancer human tumor SUM149PT cell line growth inhibition [GQUAD];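 also: spheroids exposed to drugs for seven days before readout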;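 as to viability, T/C: percent viability relative to DMSO vehicle control taken as 100%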
# Run conditions: second compound 1 µM; first compound 3.16 µM; stronger effect = lower value
viability, T/C less than 20% is T; viability, T/C greater than or equal to 20% is F.

Please state whether viability, T/C is below 20% for Nc1ccn(C2OC(CO)C(O)C2(F)F)c(=O)n1 (configuration not stated) + Cc1cnc(CNC(=O)c2c(=O)c3ccc(N4CCCN(C)CC4)nc3n3c2sc2ccccc23)cn1 T

Cool, now O=C(NO)c1cnc(N2CCN(S(=O)(=O)c3ccc4ccccc4c3)CC2)nc1 + Cc1cnc(CNC(=O)c2c(=O)c3ccc(N4CCCN(C)CC4)nc3n3c2sc2ccccc23)cn1 T

Cool, now Nc1ccn(C2OC(CO)C(O)C2(F)F)c(=O)n1 (configuration not stated) + Cc1[nH]c2ccc(F)cc2c1-c1nc2c3cccnc3c3ncccc3c2[nH]1 T

Cool, now CC(=O)O[C@H]1C(=O)[C@@]2(C)[C@H]([C@H](OC(=O)c3ccccc3)[C@]3(O)C[C@H](OC(=O)[C@H](O)[C@@H](NC(=O)c4ccccc4)c4ccccc4)C(C)=C1C3(C)C)[C@]1(OC(C)=O)CO[C@@H]1C[C@@H]2O + Cc1cnc(CNC(=O)c2c(=O)c3ccc(N4CCCN(C)CC4)nc3n3c2sc2ccccc23)cn1 T

Cool, now O=c1[nH]cc(F)c(=O)[nH]1 + Cc1[nH]c2ccc(F)cc2c1-c1nc2c3cccnc3c3ncccc3c2[nH]1 F

Cool, now COc1cc(C2c3cc4c(cc3C(OC3OC5COC(C)OC5C(O)C3O)C3COC(=O)C23)OCO4)cc(OC)c1O (configuration not stated) + CN(C)c1ccc(Nc2c3ccc(NC(=O)CCN4CCCC4)cc3nc3cc(NC(=O)CCN4CCCC4)ccc23)cc1 F

Cool, now Nc1ccn(C2OC(CO)C(O)C2(F)F)c(=O)n1 (configuration not stated) + CN(C)c1ccc(Nc2c3ccc(NC(=O)CCN4CCCC4)cc3nc3cc(NC(=O)CCN4CCCC4)ccc23)cc1 F

Measured values drawn from PubChem BioAssay AID2060484 for this set.
